GI50 overview
- Test system: NCI/ADR-RES
- runDescription: NCI tumour cell line growth inhibition, 48 h
Activity calls are given as the source filed them. Rule as the data show it: active = GI50 up to about 1.1 µM and inactive = higher.

> print(dat)
                                   compound  measuredendpoint         resultvalue
1        CC(=O)NC1=CC(=O)c2cc(C)cc(O)c2C1=O              GI50  5.77 µM (inactive)
2  O=c1oc2cc(/N=C/c3ccc4c(c3)OCO4)ccc2c2ccccc12              GI50  77.1 µM (inactive)
3  O=C1C(C(c2ccccc2)N2CCOCC2)=C(O)C(c2ccccc2)N1c1ccccc1 (stereo unspecified)              GI50  > 10 µM (inactive)

# input Recall and state the measured GI50 for CCOC(=O)CCC(NC(=O)c1ccc(Nc2nc3ccccc3nc2-c2cccs2)cc1)C(=O)OCC (stereo unspecified) .
# output 21.3 µM (inactive)

# input Recall and state the measured GI50 for CC(=O)OC1(C)C=CC(=O)C=C1 .
# output 6.3 µM (inactive)

# input Recall and state the measured GI50 for Nc1nc(NNc2cccc(F)c2)cc(=O)[nH]1 .
# output 44.9 µM (inactive)

---

- Tested on: SNB-75
- runDescription: NCI tumour cell line growth inhibition, 48 h
Activity calls are given as the source filed them. Rule as the data show it: active = GI50 up to about 1.1 µM and inactive = higher.
GI50 overview

Please review the entries below; each comes with its answer.
compound	measuredEndpoint	resultValue
CC[N+](C)(C)c1ccc(C(=C2C=CC(=[N+](C)C)C=C2)c2ccc(N(C)C)cc2)cc1	GI50	4.76 µM (inactive)
O=[PH](O)c1cccnc1	GI50	> 100 µM (inactive)
c1ccc2c(c1)NCc1cc3ccccc3nc1O2	GI50	> 84.5 µM (inactive)

# input Recall and state the measured GI50 for CCC1(O)CC(OC2CC(N(C)C)C(OC3CC(O)C(OC4OC(C)C(=O)C=C4N)C(C)O3)C(C)O2)c2c(O)c3c(c(O)c2C1C(=O)OC)C(=O)c1cccc(O)c1C3=O (stereo not given) .
# output 0.0311 µM (active)

# input Recall and state the measured GI50 for COC(=O)/C(=C/c1ccc(OC)cc1)c1cc(OC)c(OC)c(OC)c1 .
# output 1.29 µM (inactive)

---

- System: COLO 205
- runDescription: NCI tumour cell line growth inhibition, 48 h
The source made the active and inactive calls. No stated cut-off is given here; in the data, active = GI50 up to about 1.1 µM and inactive = higher.
Hi! Could you answer with just one of these? 1.0 = active, 0.0 = inactive

# input What did the test return for COC(=O)C1=C(OC(=O)/C(=C/c2ccccc2)c2ccccc2)C(C(=O)OC)[C@@]2(O)[C@@H](C(=O)OC)[C@H](C)C[C@@H]1[C@@H]2C(=O)OC (stereo not given in full) ?
# output 0.0

# input What did the test return for COc1cccc(C=C(C#N)C#N)c1OC ?
# output 0.0

# input What did the test return for COc1ccc(C2c3cc4c(cc3OC(NCCO)C2C)OCO4)cc1 (stereo not given) ?
# output 0.0

# input What did the test return for COc1cc2cccc(NC(=O)c3cc(OC)c(OC)c(OC)c3Br)c2cc1OC ?
# output 0.0

# input What did the test return for Cc1c(C(=O)O)n(C)c(=O)n(C)c1=O ?
# output 0.0

# input What did the test return for Cc1cc(NC(=O)NC(=O)c2ccccc2[N+](=O)[O-])ccc1Oc1ncc(Cl)cn1 ?
# output 1.0

# input What did the test return for CN(C)CCOc1ccc(-c2c(Oc3ccc(Cl)cc3)c(=O)oc3ccccc23)cc1 ?
# output 0.0

# input What did the test return for O=C1OCC(c2ccc(Cl)cc2)=C1Cl ?
# output 0.0

# input What did the test return for CCOC(=O)c1cn(-c2ccccc2)c(=S)n2c1nc1ccccc12 ?
# output 0.0

# input What did the test return for COCCOCOc1ccc(OCOCCOC)c2c1C(=O)c1ccccc1C2=O ?
# output 0.0
